Entries annotated with measured growth AUC normalised to DMSO control
System: Shigella flexneri
Test: growth AUC normalised to DMSO control (fraction of control); higher = less growth inhibition, active = hit call of the paper
Details: 20 µM
Structures can show the parent of a compound that is named as a salt.
// no unit string in output, number only

CO[C@@]1(NC(=O)C2SC(=C(C(N)=O)C(=O)O)S2)C(=O)N2C(C(=O)O)=C(CSc3nnnn3C)CS[C@@H]21 (stereo partly specified) : 0.0192

### Prompt Please report the recorded growth AUC normalised to DMSO control for CCC[C@@H]1C[C@@H](C(=O)N[C@@H]([C@H]2O[C@H](SC)[C@H](O)[C@@H](O)[C@H]2O)[C@@H](C)O)N(C)C1 [Lincomycin hydrochloride] .
### Response 0.956

### Prompt Please report the recorded growth AUC normalised to DMSO control for COc1ccc2cc([C@H](C)C(=O)O)ccc2c1 [(S)-Naproxen] .
### Response 1.01

### Prompt Please report the recorded growth AUC normalised to DMSO control for CCOC(=O)OC(C)OC(=O)[C@@H]1N2C(=O)[C@@H](NC(=O)[C@H](N)c3ccccc3)[C@H]2SC1(C)C (stereo partly specified) [Bacampicillin hydrochloride] .
### Response 0.0323

### Prompt Please report the recorded growth AUC normalised to DMSO control for COc1ccc(CN(CCN(C)C)c2ccccn2)cc1 [Pyrilamine maleate] .
### Response 0.995

### Prompt Please report the recorded growth AUC normalised to DMSO control for Fc1ccc([C@@H]2CCNC[C@H]2COc2ccc3c(c2)OCO3)cc1 [Paroxetine hydrochloride] .
### Response 1

### Prompt Please report the recorded growth AUC normalised to DMSO control for CCN(CC)C(=O)Nc1ccc(OCC(O)CNC(C)(C)C)c(C(C)=O)c1 (stereo unspecified) [Celiprolol hydrochloride] .
### Response 0.992

### Prompt Please report the recorded growth AUC normalised to DMSO control for CC(NCCC(c1ccccc1)c1ccccc1)c1ccccc1 (stereo unspecified) [Fendiline hydrochloride] .
### Response 1.02

### Prompt Please report the recorded growth AUC normalised to DMSO control for COc1ccc2cc([C@@H](C)C(=O)O)ccc2c1 [(R) Naproxen sodium salt] .
### Response 1.08

### Prompt Please report the recorded growth AUC normalised to DMSO control for CCOc1ccccc1OC(c1ccccc1)C1CNCCO1 (stereo unspecified) [Reboxetine mesylate] .
### Response 0.986

### Prompt Please report the recorded growth AUC normalised to DMSO control for NNC(=O)c1ccncc1 .
### Response 1.04

### Prompt Please report the recorded growth AUC normalised to DMSO control for O=C(CCCCC(=O)Nc1c(I)cc(I)c(C(=O)O)c1I)Nc1c(I)cc(I)c(C(=O)O)c1I [Iodipamide] .
### Response 0.998

### Prompt Please report the recorded growth AUC normalised to DMSO control for Nc1nc(NC2CC2)c2ncn([C@H]3C=C[C@@H](CO)C3)c2n1 [Abacavir sulfate] .
### Response 0.989

### Prompt Please report the recorded growth AUC normalised to DMSO control for C[C@]12C=CC(=O)C=C1CC[C@H]1[C@@H]3C[C@@H](O)[C@](O)(C(=O)CO)[C@@]3(C)C[C@H](O)[C@@]12F .
### Response 0.977

### Prompt Please report the recorded growth AUC normalised to DMSO control for CC[C@@H](CO)NCCN[C@@H](CC)CO [Ethambutol dihydrochloride] .
### Response 0.976

### Prompt Please report the recorded growth AUC normalised to DMSO control for Nc1ccc(S(=O)(=O)NC(=O)c2ccccc2)cc1 [Sulfabenzamide] .
### Response 1.03
